tested on: PC-3 [JPC-3]; assay: relative viability (nuclei count vs DMSO), 5 days (fraction); higher = more cells survive; conditions: first compound 8 µM
Measurement label: relative viability

Prompt: Entry Nc1cccc2c1CN(C1CCC(=O)NC1=O)C2=O (stereo unspecified) [Lenalidomide] + CC(C)C[C@H](NC(=O)[C@H](Cc1ccccc1)NC(=O)c1cnccn1)B(O)O [Bortezomib] (partner 0.002 µM) : reported relative viability = ?
Completion: 0.99

Prompt: Requested read-out: relative viability. Entry: Nc1cccc2c1CN(C1CCC(=O)NC1=O)C2=O (stereo unspecified) [Lenalidomide] + CS(=O)(=O)N1CCN(Cc2cc3nc(-c4cccc5[nH]ncc45)nc(N4CCOCC4)c3s2)CC1 [Pictilisib] (partner 1 µM)
Completion: 0.734

Prompt: Reported relative viability for Nc1cccc2c1CN(C1CCC(=O)NC1=O)C2=O (stereo unspecified) [Lenalidomide] + CS(=O)(=O)CCNCc1ccc(-c2ccc3ncnc(Nc4ccc(OCc5cccc(F)c5)c(Cl)c4)c3c2)o1 [Lapatinib] (partner 2 µM) : what is it?
Completion: 0.389

Prompt: Please give the measured relative viability for this molecule: Nc1cccc2c1CN(C1CCC(=O)NC1=O)C2=O (stereo unspecified) [Lenalidomide] + CC(=O)c1c(C)c2cnc(Nc3ccc(N4CCNCC4)cn3)nc2n(C2CCCC2)c1=O [Palbociclib] (partner 0.5 µM)
Completion: 0.57

Prompt: Requested read-out: relative viability. Entry: Nc1cccc2c1CN(C1CCC(=O)NC1=O)C2=O (stereo unspecified) [Lenalidomide] + Cc1cc(Nc2cc(N3CCN(C)CC3)nc(Sc3ccc(NC(=O)C4CC4)cc3)n2)n[nH]1 [Tozasertib] (partner 0.1 µM)
Completion: 0.955

Prompt: Look up relative viability for this molecule: Nc1cccc2c1CN(C1CCC(=O)NC1=O)C2=O (stereo unspecified) [Lenalidomide] + CCNC(=O)c1noc(-c2cc(C(C)C)c(O)cc2O)c1-c1ccc(CN2CCOCC2)cc1 [Luminespib] (partner 0.01 µM)
Completion: 0.572

---

test system: SW 900; assay: relative viability (nuclei count vs DMSO), 5 days (fraction); higher = more cells survive; conditions: first compound 6.325 µM
Measurement label: relative viability

Prompt: Report relative viability for Cc1csc(=NC2CCCCC2)n1/N=C/c1ccc(O)c(O)c1O [MIM1] + CC(=O)Nc1cccc(-n2c(=O)n(C3CC3)c(=O)c3c(Nc4ccc(I)cc4F)n(C)c(=O)c(C)c32)c1 [Trametinib] (partner 0.02 µM) please.
Completion: 0.196

Prompt: Which relative viability value is on record for Cc1csc(=NC2CCCCC2)n1/N=C/c1ccc(O)c(O)c1O [MIM1] + COc1cccc2cc(-c3nc([C@H]4CC[C@H](C(=O)O)CC4)n4ncnc(N)c34)[nH]c12 [OSI-027] (partner 0.5 µM) ?
Completion: 0.441

Prompt: Suppose we examine the compound Cc1csc(=NC2CCCCC2)n1/N=C/c1ccc(O)c(O)c1O [MIM1] + COc1cc2c(Oc3ccc(NC(=O)C4(C(=O)Nc5ccc(F)cc5)CC4)cc3F)ccnc2cc1OCCCN1CCOCC1 [Foretinib] (partner 0.25 µM) ; what relative viability value has been reported?
Completion: 0.917

Prompt: relative viability for Cc1csc(=NC2CCCCC2)n1/N=C/c1ccc(O)c(O)c1O [MIM1] + N=C(N)NC(=N)NCCc1ccccc1 [Phenformin] (partner 250 µM) ?
Completion: 0.495

Prompt: May I ask what relative viability has been recorded for Cc1csc(=NC2CCCCC2)n1/N=C/c1ccc(O)c(O)c1O [MIM1] + Cc1cc(Nc2cc(N3CCN(C)CC3)nc(Sc3ccc(NC(=O)C4CC4)cc3)n2)n[nH]1 [Tozasertib] (partner 0.1 µM) ?
Completion: 0.528

Prompt: Any idea what relative viability was measured for Cc1csc(=NC2CCCCC2)n1/N=C/c1ccc(O)c(O)c1O [MIM1] + Nc1nc2[nH]cc(CCc3ccc(C(=O)N[C@@H](CCC(=O)O)C(=O)O)cc3)c2c(=O)[nH]1 [Pemetrexed] (partner 0.2 µM) ?
Completion: 0.349

---

Assignment: determine reported relative viability for the given compounds.
tested on: NCI-H2347; assay: relative viability (nuclei count vs DMSO), 5 days (fraction); higher = more cells survive; conditions: first compound 0.2 µM
The response must contain the number and no unit.

Prompt: What measured relative viability goes with CN1CCN(CCOc2cc(OC3CCOCC3)c3c(Nc4c(Cl)ccc5c4OCO5)ncnc3c2)CC1 [Saracatinib] + CC(C)C[C@H](NC(=O)[C@H](Cc1ccccc1)NC(=O)c1cnccn1)B(O)O [Bortezomib] (partner 0.002 µM) ?
Completion: 0.921

Prompt: I would be grateful if you could share the reported relative viability for Cc1csc(=NC2CCCCC2)n1/N=C/c1ccc(O)c(O)c1O [MIM1] + CC(=O)c1c(C)c2cnc(Nc3ccc(N4CCNCC4)cn3)nc2n(C2CCCC2)c1=O [Palbociclib] (partner 0.5 µM) .
Completion: 0.408

Prompt: Consider the compound Cc1csc(=NC2CCCCC2)n1/N=C/c1ccc(O)c(O)c1O [MIM1] + CCNC(=O)c1noc(-c2cc(C(C)C)c(O)cc2O)c1-c1ccc(CN2CCOCC2)cc1 [Luminespib] (partner 0.01 µM) and give its measured relative viability.
Completion: 0.496

Prompt: Give its relative viability value. Item: CCNC(=O)c1noc(-c2cc(C(C)C)c(O)cc2O)c1-c1ccc(CN2CCOCC2)cc1 [Luminespib] + CC(=O)c1c(C)c2cnc(Nc3ccc(N4CCNCC4)cn3)nc2n(C2CCCC2)c1=O [Palbociclib] (partner 0.5 µM)
Completion: 0.301

---

tested on: NCI-H1395; test: relative viability (nuclei count vs DMSO), 5 days (fraction); higher = more cells survive; settings: first compound 0.02 µM
Can you tell me relative viability for the items I'm about to list?
# answer = number (no unit)

Prompt: Param readout= relative viability; system= NCI-H1395; entry= CN1CCN(CCOc2cc(OC3CCOCC3)c3c(Nc4c(Cl)ccc5c4OCO5)ncnc3c2)CC1 [Saracatinib] + CC(=O)Nc1cccc(-n2c(=O)n(C3CC3)c(=O)c3c(Nc4ccc(I)cc4F)n(C)c(=O)c(C)c32)c1 [Trametinib] (partner 0.02 µM) ; returns value.
Completion: 1.07

Prompt: Provide value of relative viability for this record tested with NCI-H1395: CN1CCN(CCOc2cc(OC3CCOCC3)c3c(Nc4c(Cl)ccc5c4OCO5)ncnc3c2)CC1 [Saracatinib] + CCNC(=O)c1noc(-c2cc(C(C)C)c(O)cc2O)c1-c1ccc(CN2CCOCC2)cc1 [Luminespib] (partner 0.01 µM)
Completion: 0.621

Prompt: Hi! What's the reported relative viability for CCNC(=O)c1noc(-c2cc(C(C)C)c(O)cc2O)c1-c1ccc(CN2CCOCC2)cc1 [Luminespib] + CS(=O)(=O)N1CCN(Cc2cc3nc(-c4cccc5[nH]ncc45)nc(N4CCOCC4)c3s2)CC1 [Pictilisib] (partner 1 µM) on NCI-H1395?
Completion: 0.429

Prompt: Param readout= relative viability; system= NCI-H1395; entry= CN1CCN(CCOc2cc(OC3CCOCC3)c3c(Nc4c(Cl)ccc5c4OCO5)ncnc3c2)CC1 [Saracatinib] + Cc1cc(Nc2cc(N3CCN(C)CC3)nc(Sc3ccc(NC(=O)C4CC4)cc3)n2)n[nH]1 [Tozasertib] (partner 0.1 µM) ; returns value.
Completion: 0.722

---

Exercise: for every item that follows, state its recorded relative viability.
system: LK-2; test: relative viability (nuclei count vs DMSO), 5 days (fraction); higher = more cells survive; conditions: first compound 2 µM
The answer should be a number; do not append a unit.

Prompt: Lab note: need relative viability with LK-2 for entry CN1CCN(CCOc2cc(OC3CCOCC3)c3c(Nc4c(Cl)ccc5c4OCO5)ncnc3c2)CC1 [Saracatinib] + C[C@]1(O)C[C@@H](c2nc(-c3ccc4ccc(-c5ccccc5)nc4c3)c3c(N)nccn32)C1 [Linsitinib] (partner 1 µM) , please look it up.
Completion: 0.3

Prompt: Can you look up relative viability on LK-2 for CN1CCN(CCOc2cc(OC3CCOCC3)c3c(Nc4c(Cl)ccc5c4OCO5)ncnc3c2)CC1 [Saracatinib] + N=C(N)NC(=N)NCCc1ccccc1 [Phenformin] (partner 250 µM) ?
Completion: 0.314

Prompt: // fetch LK-2 relative viability for Cc1csc(=NC2CCCCC2)n1/N=C/c1ccc(O)c(O)c1O [MIM1] + CS(=O)(=O)CCNCc1ccc(-c2ccc3ncnc(Nc4ccc(OCc5cccc(F)c5)c(Cl)c4)c3c2)o1 [Lapatinib] (partner 2 µM)
Completion: 0.697

---

Would you kindly list relative viability for each of these compounds?
test system: NCI-H322M; assay: relative viability (nuclei count vs DMSO), 5 days (fraction); higher = more cells survive; conditions: first compound 0.253 µM
Enter a number only.

Prompt: What value of measured relative viability is listed for Nc1cccc2c1CN(C1CCC(=O)NC1=O)C2=O (centres undefined) [Lenalidomide] + Nc1nc2[nH]cc(CCc3ccc(C(=O)N[C@@H](CCC(=O)O)C(=O)O)cc3)c2c(=O)[nH]1 [Pemetrexed] (partner 0.2 µM) ?
Completion: 0.631

Prompt: Request the reported relative viability associated with Nc1cccc2c1CN(C1CCC(=O)NC1=O)C2=O (centres undefined) [Lenalidomide] + Cc1nc(Nc2ncc(C(=O)Nc3c(C)cccc3Cl)s2)cc(N2CCN(CCO)CC2)n1 [Dasatinib] (partner 0.075 µM)
Completion: 0.262

Prompt: Find the recorded relative viability belonging to Nc1cccc2c1CN(C1CCC(=O)NC1=O)C2=O (centres undefined) [Lenalidomide] + CC(C)C[C@H](NC(=O)[C@H](Cc1ccccc1)NC(=O)c1cnccn1)B(O)O [Bortezomib] (partner 0.002 µM) and report it.
Completion: 1.18

Prompt: Could you tell me which relative viability is on file for Nc1cccc2c1CN(C1CCC(=O)NC1=O)C2=O (centres undefined) [Lenalidomide] + CCNC(=O)c1noc(-c2cc(C(C)C)c(O)cc2O)c1-c1ccc(CN2CCOCC2)cc1 [Luminespib] (partner 0.01 µM) ?
Completion: 0.81
